Source: patent US20260015350A1

system: KRas-mediated phosphorylation of ERK in H460 cells; assay: Inhibition of KRas-mediated phosphorylation of ERK (Cisbio HTRF pERK), H460 cells; format: cell-based; conditions: Homo sapiens, NCI-H460, HTRF pERK
valueKind: IC50 (nM)

Known IC50 results, listed for orientation:
{"compound": "CCc1c(F)ccc2cc(O)cc(-c3ncc4c(N5CC6CCC(C5)C6CC(=O)N(C)C)nc(OC[C@@]56CCCN5C[C@H](F)C6)nc4c3F)c12 (stereo partly drawn)", "valueKind": "IC50", "resultNumber": 395}
{"compound": "CCc1c(F)ccc2cc(O)cc(-c3ncc4c(N5CCC[C@@](C)(O)C5)nc(OC[C@]56CCCN5[C@H](COC)CC6)nc4c3F)c12", "valueKind": "IC50", "resultNumber": 8}
{"compound": "CCc1c(F)ccc2cc(O)cc(-c3ncc4c(N5CCCc6ncccc6C5)nc(OC[C@@]56CCCN5C[C@H](F)C6)nc4c3F)c12", "valueKind": "IC50", "resultNumber": 481}
{"compound": "CCc1c(F)ccc2cc(O)cc(-c3ncc4c(N5CC6CCC(C5)C6C#N)nc(OC[C@@]56CCCN5C[C@H](F)C6)nc4c3F)c12 (single isomer, unassigned)", "valueKind": "IC50", "resultNumber": 5}
{"compound": "C[C@@H]1C[C@@H]1c1c(Cl)cc(O)cc1-c1ncc2c(N3CCCn4nc(C(=O)N(C)C)cc4C3)nc(OCC34CCCN3C/C(=C\\F)C4)nc2c1F (stereo partly drawn)", "valueKind": "IC50", "resultNumber": 104}

a: CCc1c(F)ccc2cc(O)cc(-c3ncc4c(N5CCCn6nc(C(=O)N(C)C)cc6C5)nc(OC[C@]56CCCN5[C@H](COC(=O)N(C)C)CC6)nc4c3F)c12
b: CCc1c(F)ccc2cc(O)cc(-c3ncc4c(N5CCC[C@]6(CCO6)C5)nc(OCC5(CN(C)C)CC5)nc4c3F)c12
# input // select label with min value of measured IC50 from [ a , b ] State the label of the item chosen.
# output b
(b: 5 nM, a: 193 nM)

a: CCc1cccc2cc3[nH]ncc3c(-c3ncc4c(N5CCCn6nc(C(=O)N(C)C)cc6C5)nc(OC[C@@]56CCCN5C[C@H](F)C6)nc4c3F)c12
b: C[C@@]1(O)CCCN(c2nc(OC[C@@]34CCCN3C[C@H](F)C4)nc3c(F)c(-c4cc(O)cc5ccccc45)ncc23)C1
c: C[C@@]1(O)CCCN(c2nc(OCC34CCCN3CCC4)nc3c(F)c(-c4c(C5CC5)c(Cl)cc5[nH]ncc45)ncc23)C1
d: CCc1c(F)ccc2cc(O)cc(-c3ncc4c(N5CCCn6nc(C(=O)N(C)C)cc6C5)nc(OCC56CCCN5C/C(=C\F)C6)nc4c3F)c12 (stereo not drawn)
e: C=C1CN2CCCC2(COc2nc(N3CCCC4(CNS(=O)(=O)N4)C3)c3cnc(-c4cc(O)cc5ccc(F)c(CC)c45)c(F)c3n2)C1 (stereo not drawn)
# input Output the entries ranked by IC50 from maximum down to minimum. Respond with the label ranking, as requested.
# output a, c, b, d, e
(a: 1720 nM, c: 561 nM, b: 198 nM, d: 28 nM, e: 17 nM)

P: CCc1c(F)ccc2cc(O)cc(-c3ncc4c(N5CCC[C@@](C)(O)C5)nc(OCC5(CN(C)C)C(C)C5C)nc4c3F)c12 (stereo partly drawn)
Q: CCc1c(F)ccc2cc(O)cc(-c3ncc4c(N5CCC[C@H](C)C5)nc(OC[C@@]56CCCN5C[C@H](F)C6)nc4c3F)c12
# input // select label with min value of measured IC50 from [ P , Q ] State the label of the item chosen.
# output Q
(Q: 107 nM, P: 167 nM)

A: CCc1c(F)ccc2cc(O)cc(-c3ncc4c(N5CC6CCC(C5)C6C(=O)NC)nc(OC[C@@]56CCCN5C[C@H](F)C6)nc4c3F)c12 (stereo partly drawn)
B: CCc1c(F)ccc2cc(O)cc(-c3ncc4c(N5CC6CCC(C5)C6CC(N)=O)nc(OC[C@@]56CCCN5C[C@H](F)C6)nc4c3F)c12 (stereo partly drawn)
C: C#Cc1c(F)ccc2cc(O)cc(-c3ncc4c(N5CCC[C@@](C)(O)C5)nc(OC[C@]56CCCN5C/C(=C\F)C6)nc4c3F)c12
# input Output the entries ranked by IC50 from maximum down to minimum. Respond with the label ranking, as requested.
# output B, A, C
(B: 892 nM, A: 83 nM, C: 4 nM)
